# test_description: Metabolic stability in human hepatic microsome
# Assay type: in vitro ADME
# conditions_used: microsomes, pH 7.4; human hepatic microsome, NADPH(+); read-out: CL NADPH(+)
Positions of bridges follow the written chain, without caps; N, C: chain ends. Non-standard residues stand in square brackets, D forms with d. Residues, ends and D or L forms follow the SMILES beside them. *: point of attachment. NMeF = CN[C@@H](Cc1ccccc1)C(=O)O; NMeL = CN[C@@H](CC(C)C)C(=O)O; NMeV = CN[C@H](C(=O)O)C(C)C; NMeA = CN[C@@H](C)C(=O)O; Piperidide = C1CCN(*)CC1; dNMeA = CN[C@H](C)C(=O)O; Sar = CNCC(=O)O
readout: microsomal CLint at 1 uM (µL/min/mg)

• CC(C)C[C@H]1C(=O)NCC(=O)N[C@@H]([C@@H](C)O)C(=O)N(C)[C@@H](C(C)C)C(=O)N[C@@H](Cc2ccccc2)C(=O)N[C@H](C(=O)N(C)[C@@H](Cc2ccccc2)C(=O)N(C)[C@@H](Cc2ccccc2)C(=O)N[C@@H](C)C(=O)N2CCCCC2)CC(=O)N(C)[C@H](C)C(=O)N(C)[C@@H](C)C(=O)N[C@@H](C(C)C)C(=O)N(C)[C@@H](Cc2ccccc2)C(=O)N1C [DP-452] ([dNMeA][NMeA]V[NMeF][NMeL]GT[NMeV]FD[NMeF][NMeF]A-Piperidide; lactam N-10) = 21
• CC(C)C[C@H]1C(=O)N[C@@H](C(C)C)C(=O)N[C@H](C(=O)N(C)[C@@H](Cc2ccccc2)C(=O)N[C@@H](C)C(=O)N2CCCCC2)CC(=O)N[C@H](C)C(=O)N(C)[C@@H](C)C(=O)N(C)[C@@H](Cc2ccccc2)C(=O)N(C)[C@@H](CC(C)C)C(=O)N[C@@H]([C@@H](C)O)C(=O)N(C)CC(=O)N1C [DP-380] ([dA][NMeA][NMeF][NMeL]T[Sar][NMeL]VD[NMeF]A-Piperidide; lactam N-9) = 58
